FYI, the data here is from patent US8404673B2.

biological target: mGlyT-1b (Mus musculus); construct: host or cells: Flp-in-CHO; assay: Glycine Uptake Inhibition Assay (mGlyT-1b); assay type: cell-based; conditions: IC50 data
Mark yes (1) only for IC50 values smaller than 70 nM; exact matches and larger values are no (0).

[[record]]
molecule = "CCc1cc(C(F)(F)F)cc(C(F)(F)F)c1C(=O)N[C@H]1CCC[C@H]1N1CCCC1 (relative stereo) [Example 137]"
category = "yes (1)"

[[record]]
molecule = "O=C(NC1CCCC1N1CCCC1)c1c(C2CC2)cc(C(F)(F)F)cc1C(F)(F)F (single isomer, unassigned; (+)) [Example 139]"
category = "yes (1)"

[[record]]
molecule = "CCc1cc(C(F)(F)F)ccc1C(=O)N[C@H]1CCC[C@H]1N1CCCC1 (relative stereo)"
category = "no (0)"

[[record]]
molecule = "CSc1cc(C(F)(F)F)ccc1C(=O)N[C@@H]1CCC[C@@H]1N1CCCC1 (single isomer, unassigned) [Example 85]"
category = "yes (1)"

[[record]]
molecule = "Cc1cc(C(F)(F)F)cc(C(F)(F)F)c1C(=O)N[C@H]1CCC[C@H]1N1CCCC1 (relative stereo)"
category = "yes (1)"

[[record]]
molecule = "CCc1cccc(C2CC2)c1C(=O)N[C@H]1CCC[C@H]1N1CCCC1 (racemic)"
category = "no (0)"

[[record]]
molecule = "CSc1cc(C(F)(F)F)cc(C(F)(F)F)c1C(=O)N[C@H]1CCC[C@H]1N1CCCC1 (racemic)"
category = "yes (1)"

[[record]]
molecule = "O=C(N[C@H]1CCC[C@H]1N1CCCC1)c1c(C2CC2)cc(C(F)(F)F)cc1C(F)(F)F (relative stereo)"
category = "yes (1)"

[[record]]
molecule = "CCc1cc(C(F)(F)F)cc(OC)c1C(=O)N[C@H]1CCC[C@H]1N1CCCC1 (relative stereo)"
category = "yes (1)"

[[record]]
molecule = "CSc1cc(C(F)(F)F)cc(C(F)(F)F)c1C(=O)N[C@@H]1CCC[C@@H]1N1CCCC1 (single isomer, unassigned) [Example 119]"
category = "yes (1)"

[[record]]
molecule = "O=C(N[C@H]1CCC[C@H]1N1CCCC1)c1c(Cl)cc(C(F)(F)F)cc1Cl (relative stereo)"
category = "no (0)"

[[record]]
molecule = "CSc1cc(C(F)(F)F)ccc1C(=O)N[C@@H]1CCC[C@@H]1N1CCCC1 (single isomer, unassigned) [Example 84]"
category = "no (0)"


###

Target: mGlyT-1b (Mus musculus, UniProt P28571)
Construct: host or cells: Flp-in-CHO
Sequence (P28571 1-651 isoform P28571-2): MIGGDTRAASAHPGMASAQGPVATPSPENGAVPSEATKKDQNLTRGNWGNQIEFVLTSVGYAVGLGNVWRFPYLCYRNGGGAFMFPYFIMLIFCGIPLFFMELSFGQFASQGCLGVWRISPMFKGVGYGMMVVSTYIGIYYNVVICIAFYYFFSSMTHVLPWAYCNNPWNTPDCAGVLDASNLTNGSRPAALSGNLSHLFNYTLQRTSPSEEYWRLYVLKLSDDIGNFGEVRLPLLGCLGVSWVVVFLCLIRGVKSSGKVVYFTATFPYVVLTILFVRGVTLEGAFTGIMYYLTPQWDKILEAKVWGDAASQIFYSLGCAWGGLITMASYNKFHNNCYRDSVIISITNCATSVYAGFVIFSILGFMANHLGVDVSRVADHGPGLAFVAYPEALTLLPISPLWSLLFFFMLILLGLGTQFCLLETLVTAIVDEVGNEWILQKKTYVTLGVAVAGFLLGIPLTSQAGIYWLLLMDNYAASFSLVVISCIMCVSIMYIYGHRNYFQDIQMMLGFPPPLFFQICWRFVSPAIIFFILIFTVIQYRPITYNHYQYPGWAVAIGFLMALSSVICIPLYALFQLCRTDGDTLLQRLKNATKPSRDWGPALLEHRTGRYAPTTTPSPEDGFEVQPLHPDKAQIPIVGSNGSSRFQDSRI
Experiment: Glycine Uptake Inhibition Assay (mGlyT-1b)
Format: cell-based
Details: [3H]-glycine uptake, Flp-in-CHO cells transfected with mGlyT-1b cDNA, 20 min preincubation at 22° C.; read-out: IC50 data
pIC50: −log10 of the molar value.
readout name: pIC50

[[record]]
compound = "CSc1cc(C(F)(F)F)cc(C(F)(F)F)c1C(=O)N[C@H]1CCC[C@H]1NC1CCCC1 (racemic)"
test_value = 7.02

